# target_desc: human NK2-receptor (Homo sapiens, UniProt P21452)
# Sequence (P21452 whole entry): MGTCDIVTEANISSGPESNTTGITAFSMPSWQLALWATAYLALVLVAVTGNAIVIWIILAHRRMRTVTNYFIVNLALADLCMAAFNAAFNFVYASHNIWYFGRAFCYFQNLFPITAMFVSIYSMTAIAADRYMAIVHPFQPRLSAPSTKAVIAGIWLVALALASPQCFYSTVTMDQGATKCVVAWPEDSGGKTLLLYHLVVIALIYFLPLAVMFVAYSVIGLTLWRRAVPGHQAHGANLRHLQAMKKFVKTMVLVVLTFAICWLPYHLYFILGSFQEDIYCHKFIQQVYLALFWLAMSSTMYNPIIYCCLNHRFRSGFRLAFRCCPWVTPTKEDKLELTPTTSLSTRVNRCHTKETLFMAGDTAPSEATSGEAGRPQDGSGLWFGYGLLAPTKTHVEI
# measurement_protocol: Functional cellular test, Ca2+ measurements using FLIPR for NK2 activity;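 also: CHO cells stably expressing the human receptor, loaded with a calcium dye, antagonist inhibition of ligand-evoked intracellular calcium rise read as peak fluorescence change on FLIPR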
# recorded_conditions: CHO cells, human NK2, FLIPR Ca2+, agonist NKA 10^-7 M
Listed below: pA2 data for NK2 values for each entry.

In the examples that follow, each entry is paired with its recorded pA2 data for NK2.
Ask: Give the measured pA2 data for NK2 of `CN(C)C(=O)C1(N2CCCCC2)CCN(CC[C@H](CN(C)C(=O)c2ccc(F)cc2)c2ccc(Cl)c(Cl)c2)CC1` .
Reply: 8.6

Ask: What pA2 data for NK2 value was documented for this compound, `CN(C)C(=O)C1(N2CCCCC2)CCN(CC[C@H](CN(C)C(=O)c2ccc(F)c(Cl)c2)c2ccc(Cl)c(Cl)c2)CC1` ?
Reply: 8.6

***
Ask: Name the reported pA2 data for NK2 value associated with the compound `CN(C)C(=O)C1(N2CCCCC2)CCN(CC[C@H](CN(C)C(=O)c2ccc(F)c(F)c2)c2ccc(Cl)c(Cl)c2)CC1`
Reply: 8.2

* * *

# target_desc: human NK3 receptor (Homo sapiens)
# Sequence (P29371 1-465): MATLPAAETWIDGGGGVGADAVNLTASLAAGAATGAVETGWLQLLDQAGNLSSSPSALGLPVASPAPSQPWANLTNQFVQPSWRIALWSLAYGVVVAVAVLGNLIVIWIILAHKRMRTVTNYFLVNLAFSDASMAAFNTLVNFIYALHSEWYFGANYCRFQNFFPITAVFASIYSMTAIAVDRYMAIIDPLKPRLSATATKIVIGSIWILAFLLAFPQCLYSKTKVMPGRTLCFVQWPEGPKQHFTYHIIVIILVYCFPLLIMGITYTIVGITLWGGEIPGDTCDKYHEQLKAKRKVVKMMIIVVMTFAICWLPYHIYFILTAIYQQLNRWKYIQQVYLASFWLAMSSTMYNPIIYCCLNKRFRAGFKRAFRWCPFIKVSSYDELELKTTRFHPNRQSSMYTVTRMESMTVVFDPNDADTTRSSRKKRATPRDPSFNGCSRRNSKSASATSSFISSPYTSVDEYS
# measurement_protocol: Binding potency of the test substances to NK3-receptors in vitro ([3H]-SR 142801 displacement)
# Parameters: expressed in transfected cells; host or cells: CHO cells (membrane preparation)
# recorded_conditions: human NK3-receptor in CHO cell membranes, [3H]-SR 142801 (osanetant); average of at least three measurements
measured_property: pKi, binding potency to NK3-receptors
No unit in the answer, only the number.

Ask: Fill blank: measured pKi, binding potency to NK3-receptors of the compound CN(C)C(=O)C1(N2CCCCC2)CCN(CC[C@H](CN(C)C(=O)c2cc(C#N)c3ccccc3c2)c2ccc(Cl)c(Cl)c2)CC1 [compound 11] is ____.
Reply: 7.9

Ask: Reported pKi, binding potency to NK3-receptors for CN(C)C(=O)C1(N2CCCCC2)CCN(CC[C@H](CN(C)C(=O)C2CCCCC2)c2ccc(Cl)c(Cl)c2)CC1 [compound 3] : what is it?
Reply: 8.2

Ask: Which pKi, binding potency to NK3-receptors is reported for this compound? CN(C)C(=O)C1(N2CCCCC2)CCN(CC[C@H](CN(C)C(=O)c2ccc(F)cc2F)c2ccc(Cl)c(Cl)c2)CC1 [compound 13]
Reply: 7.4

Ask: # lookup: pKi, binding potency to NK3-receptors of CN(C)C(=O)C1(N2CCCCC2)CCN(CC[C@H](CN(C)C(=O)c2cc(F)cc(F)c2)c2ccc(Cl)c(Cl)c2)CC1 [compound 9]
Reply: 8.4

Ask: Field request: pKi, binding potency to NK3-receptors | item: CN(C)C(=O)C1(N2CCCCC2)CCN(CC[C@H](CN(C)C(=O)C(Cc2ccc(-c3ccccc3)cc2)NC(=O)C(C)(C)C)c2ccc(Cl)c(Cl)c2)CC1 (some centres unmarked) [compound 60]
Reply: 7.2

Ask: So what's the measured pKi, binding potency to NK3-receptors for this one? CN(C)C(=O)C1(N2CCCCC2)CCN(CC[C@H](CN(C)C(=O)c2ccc(F)c(F)c2F)c2ccc(Cl)c(Cl)c2)CC1 [compound 16]
Reply: 7.8

Ask: Give its pKi, binding potency to NK3-receptors value. Item: CN(C)C(=O)C1(N2CCCCC2)CCN(CC[C@H](CN(C)C(=O)c2ccccc2O)c2ccc(Cl)c(Cl)c2)CC1 [compound 12]
Reply: 7.9

---
Ask: Which value of pKi, binding potency to NK3-receptors has been reported for CN(C)C(=O)C1(N2CCCCC2)CCN(CC[C@H](CN(C)C(=O)c2ccc(F)cc2)c2ccc(Cl)c(Cl)c2)CC1 [compound 4] in the records?
Reply: 8.2
